- Assay explanation: Quantitative High-Throughput drug screen in 47 multiple myeloma cell lines against the NCATS MIPE library collection: OCIMY7_PLB cell viability assay (AID 1918987); further: nearly all actives have a fitted effect of over 65% in size
- Study conditions: OCI-MY7 myeloma viability, CellTiter-Glo ATP, 48 h
Inconclusive results are not listed. Activity calls are given as the source filed them. The call rests on the fitted dose curve; in most records, active means well fitted cell-killing curve with a large enough effect; inconclusive means small, poorly fitted or top-dose-only effect, or effect the other way; inactive means no such curve, though single readings can be large or run the other way.
Classes used: active, inactive

[
  {
    "Compound": "CC(C)(N)c1ccc(-c2nc3ccccc3nc2-c2ccccc2)cc1",
    "Class label": "active"
  },
  {
    "Compound": "C=CC[C@@H]1C=C(C)C[C@H](C)C[C@H](OC)[C@H]2O[C@@](O)(C(=O)C(=O)N3CCCC[C@H]3C(=O)O[C@H](C(C)=C[C@@H]3CC[C@H](O)[C@H](OC)C3)[C@@H](C)[C@@H](O)CC1=O)[C@@H](C)C[C@@H]2OC",
    "Class label": "active"
  },
  {
    "Compound": "CN1CCc2c(c3ccccc3n2Cc2ccc(C(=O)NO)cc2)C1",
    "Class label": "active"
  },
  {
    "Compound": "Oc1cc2c(cc1O)C1c3ccc(O)c(O)c3OCC1(O)C2 (configuration not stated)",
    "Class label": "inactive"
  },
  {
    "Compound": "CCOC(=O)N1CCN([N+]([O-])=NOc2ccc([N+](=O)[O-])cc2[N+](=O)[O-])CC1",
    "Class label": "active"
  },
  {
    "Compound": "CC(C)Oc1ccc(C(=O)N[C@H](CNC(=O)CN(C)C)Cc2ccc(-c3cn4cccc([C@H](C)O)c4n3)cc2)cc1Cl",
    "Class label": "active"
  },
  {
    "Compound": "CC(=O)O[C@H]1C[C@@H]2CC[C@H]3[C@H]4C[C@H]([N+]5(C)CCCCC5)[C@@H](OC(C)=O)[C@@]4(C)CC[C@@H]3[C@@]2(C)C[C@H]1N1CCCCC1",
    "Class label": "inactive"
  },
  {
    "Compound": "CC[C@@]1([C@@H]2O[C@@H]([C@H]3O[C@@](O)(CO)[C@H](C)C[C@H]3C)C[C@H]2C)CC[C@H]([C@]2(C)CC[C@]3(C[C@H](O)[C@@H](C)[C@@H]([C@@H](C)[C@@H](OC)[C@H](C)C(=O)O)O3)O2)O1",
    "Class label": "active"
  },
  {
    "Compound": "Cc1cnc(Nc2ccc(CN3CCOCC3)cc2)nc1Nc1cccc(S(=O)(=O)NC(C)(C)C)c1",
    "Class label": "active"
  },
  {
    "Compound": "COc1cc2c(Nc3ccc(Cl)c(Cl)c3F)ncnc2cc1OCC1C[C@@H]2CN(C)C[C@H]2C1",
    "Class label": "active"
  },
  {
    "Compound": "CO[C@@H]1[C@@H](O)[C@H](O)[C@@H](n2c3c(Cl)cccc3c3c4c(c5c6cccc(Cl)c6[nH]c5c32)C(=O)NC4=O)O[C@@H]1CO",
    "Class label": "active"
  },
  {
    "Compound": "CN1[C@H]2CC(OC(=O)[C@@H](CO)c3ccccc3)C[C@H]1[C@H]1O[C@H]12 (some centres not stated)",
    "Class label": "inactive"
  },
  {
    "Compound": "C[C@@H]1CC[C@@]2(OC1)OC1CC3C4CC=C5CC(O)CCC5(C)C4CCC3(C)C1[C@@H]2C (some centres not stated)",
    "Class label": "inactive"
  },
  {
    "Compound": "CC(=O)ON=C1C(c2c(O)[nH]c3cc(Br)ccc23)=Nc2ccccc21",
    "Class label": "active"
  },
  {
    "Compound": "O=C1CSC(=O)N1C(CCc1ccncc1)COc1ccc(-c2cccc([N+](=O)[O-])c2)cc1 (configuration not stated)",
    "Class label": "active"
  },
  {
    "Compound": "C=CC(=O)Nc1cc(NC(=O)c2ccc(C)c(NC(=O)c3ccno3)c2)cc(C(F)(F)F)c1",
    "Class label": "active"
  },
  {
    "Compound": "COC(=O)C=CC(=O)OC",
    "Class label": "active"
  },
  {
    "Compound": "O=c1[nH]c(=O)n([C@H]2C[C@@H](O)[C@@H](CO)O2)cc1F",
    "Class label": "active"
  },
  {
    "Compound": "CC(=O)NCC(=O)N1[C@H]2CC[C@H]1c1cc(Nc3ncc(C(F)(F)F)c(NC4CCC4)n3)ccc12",
    "Class label": "active"
  },
  {
    "Compound": "O=C(C=Cc1ccc(CN(CCO)CCc2c[nH]c3ccccc23)cc1)NO",
    "Class label": "active"
  },
  {
    "Compound": "Cc1cc(O)c2c(c1)C(=O)c1cccc(O)c1C2=O",
    "Class label": "inactive"
  },
  {
    "Compound": "CC(C=CC(=O)NO)=C[C@@H](C)C(=O)c1ccc(N(C)C)cc1",
    "Class label": "active"
  },
  {
    "Compound": "COc1cc(CCc2cc(NC(=O)c3ccc(N4C[C@@H](C)N[C@@H](C)C4)cc3)n[nH]2)cc(OC)c1",
    "Class label": "active"
  },
  {
    "Compound": "Cc1cc(Nc2ncc3c(n2)N(C)C(=O)N(c2cc(NC(=O)c4cccc(C(F)(F)F)c4)ccc2C)C3)n(C)n1",
    "Class label": "active"
  },
  {
    "Compound": "O=C1NC(=O)C(=Cc2ccc3nccc(-c4ccncc4)c3c2)S1",
    "Class label": "active"
  },
  {
    "Compound": "CCc1ccc(C(=O)Nc2cc(CN3CCN(C)CC3)cc(C(F)(F)F)c2)cc1C#Cc1cnc2ccnn2c1",
    "Class label": "active"
  },
  {
    "Compound": "N=c1ccn2c(n1)O[C@H]1[C@@H](O)[C@@H](CO)O[C@H]12",
    "Class label": "active"
  }
]
